Assay: Plasma and brain concentration, unbound partition coefficient (Kpuu), mouse
Type: in vivo
Conditions: BalbC, oral, plasma and brain, dosed at 15 mg/kg
Description: To assess the ability for Compound No. 1A to penetrate the brain, mean plasma and brain concentration was determined for Compound No. 1A when dosed at 15 mg/kg. The unbound partition coefficient (Kpuu) was determined to be 0.19. See, e.g., FIG. 2. […] Pharmacokinetic (PK) parameters were measured for mice after being administered Compound No. 1A orally (P0) at 15 mg/kg and when administered via IV bolus at 1 mg/kg as shown in Table A below. […]
parameter: Kp uu
One number for each entry.

So for C=CC(=O)Nc1cc2c(Nc3cccc(Cl)c3F)ncnc2cc1C#C[C@@]1(C)CCN(C)C1 , the logged Kp uu turned out to be 0.19
